ASSAYED_TARGET: PKAC-alpha (Homo sapiens (Human))
TEST_DETAILS: KinaseProfiler off-target kinase profiling
Assay type: biochemical
EXPERIMENTAL_CONTEXT: 10 μM, ATP near Km
OBSERVABLE: Avg. POC (POC)

These recorded examples may help you get a feel for the data.
Cc1c(-c2ccc(=O)n(C)c2)nn(-c2ccccc2)c1NC(=O)NC1CN(CC(F)(F)F)Cc2ccccc21 (stereo not shown)	116
Cc1c(-c2cnn(C)c2)nn(-c2ccccc2)c1NC(=O)NC1CCOc2cc(F)ccc21 (stereo not shown)	120.5

a: Cc1c(-c2cnn(C)c2)nn(-c2ccccc2)c1NC(=O)N[C@H]1CCCc2ccccc21
b: COCc1ccc2c(c1)C(NC(=O)Nc1c(C)c(-c3cnn(C)c3)nn1-c1ccccc1)COC2 (stereo not shown)
Which gives the smaller Avg. POC number: a or b ? Indicate your choice by writing its label.
b
